- System: UACC-62 melanoma
- experiment: NCI tumour cell line growth inhibition, 48 h
measured property: TGI

compound: COC(=O)C1CCN(C(=O)OC(C)(C)C)CC1
TGI: > 100 µM
--
compound: COc1c(C)cc2c(C(C)C)c(O)c(O)c(C=O)c2c1O
TGI: 47.5 µM

Look at each compound and report its TGI.
1. CCCCCCCCCCCCCCCC1=NCCN1
2. CC(=O)OCC1OC(n2ccc(=O)[nH]c2=O)C(OC(C)=O)C(OC(C)=O)C1OC(C)=O (configuration not stated)
3. NC(N)=NCC1CCCCCCN1 (configuration not stated)

Result ::
4.94 µM
> 100 µM
> 100 µM

Provide TGI values for the following items, in order.
1. CC(C)N1CCN(c2ccncc2S(=O)(=O)N2CCCCC2)CC1
2. C=C(CO)CC(O)c1cc(OC)ccc1OC (configuration not stated)
3. NCCSc1cc(O)c2c(c1N)C(=O)c1ccccc1C2=O
4. Cc1c(C)c(C)c(Cn2[nH]c(=O)n(C)c2=O)c(C)c1C

Result ::
1. > 100 µM
2. > 100 µM
3. > 100 µM
4. > 100 µM

Batch request: TGI for each of the following compounds.
1. NNC(=O)CC(=O)Nc1cccc(Cl)c1
2. COc1cc2c3cc1Oc1c(OC)c(OC)cc4c1C(=NCC4)Cc1ccc(cc1)Oc1cc(ccc1O)C[C@H]3N(C)CC2
3. O=C(O)/C(Cl)=C(\Cl)C(=O)c1ccccc1

Result ::
1: > 100 µM; 2: 30.3 µM; 3: > 100 µM

----------
- Test system: SK-MEL-2 melanoma
- experiment: NCI tumour cell line growth inhibition, 48 h
Assignment: determine reported TGI for the given compounds.

Respectfully, I request TGI for each entry included below.
1. COc1cc(-c2nccc3cc(OC)c(OC)cc23)ccc1O
2. COc1cc2c3cc1Oc1c(OC)c(OC)cc4c1C(=NCC4)Cc1ccc(cc1)Oc1cc(ccc1O)C[C@H]3N(C)CC2
3. CC(O)C1(CNc2cc(Cl)nc(N)n2)CCCCC1 (stereo unspecified)
4. CCOP(=O)(OCC)/C(C#N)=C/c1cccn1C(C)C
5. CCNC(=O)c1cc(Cl)ccc1NC(=O)C12CC3CC(CC(C3)C1)C2

Result ::
1. > 100 µM
2. 31.1 µM
3. > 100 µM
4. > 100 µM
5. 81.9 µM

I have 3 compounds here; please give me TGI for each one.
1. NC(N)=NCC1CCCCCCN1 (stereo unspecified)
2. CC(=O)c1[nH]c(NC(C)C)c(C(=S)Nc2ccccc2)c1N
3. COc1cc(C2C3=C(COC3=O)Oc3cc4c(cc32)OCO4)ccc1O (stereo unspecified)

Result ::
["> 100 µM", "33 µM", "> 100 µM"]

For each entry beneath this line, provide reported TGI.
1. CSC(=NC#N)S/C=C/C(=O)c1ccccc1
2. NCCc1ccc(S(=O)(=O)F)cc1
3. CC1=CC(C)=NN=C(N)N1S(=O)(=O)c1cc(C)c(Cl)cc1SCc1ccccc1

Result ::
1: > 100 µM; 2: > 100 µM; 3: > 100 µM

----------
- Tested on: NCI-H226 lung
- experiment: NCI tumour cell line growth inhibition, 48 h
Give TGI for every item shown.
Answers are plain numbers, in µM.

compound: COc1ccc(/C=C2/CSCC3=C2NC(=S)NC3c2ccc(OC)c(OC)c2OC)c(OC)c1OC (centres undefined)
measurement units: µM
TGI: 99.3

Proceeding to the next compound to report its TGI.
Query :: Query (compound): S=C(NCCc1ccccn1)N/N=C/c1ccccn1 ; field requested: TGI
Result :: 0.986

----------
- Tested on: OVCAR-3 ovarian
- experiment: NCI tumour cell line growth inhibition, 48 h
Assign TGI to each entry below.
Answers are plain numbers, in µM.

Solved cases (3 shown):
smiles representation: CC(=O)O[C@H]([C@H](OC(C)=O)[C@H](C)OC(C)=O)[C@@H](/C=C/[C@@H]1CC=CC(=O)O1)OC(C)=O
system under test: OVCAR-3 ovarian
TGI / µM: 41.9
--
smiles representation: COc1ccc([N+](=O)[O-])c2c(NCCCN(C)C)ccnc12
system under test: OVCAR-3 ovarian
TGI / µM: 6.78
--
smiles representation: CC1=C2CC(C)(C)/C=C\C(=O)/C(C)=C\C3=C[C@H](C)C[C@]3(O2)C1=O
system under test: OVCAR-3 ovarian
TGI / µM: 1.15

Attention now turns to another entry.
Query :: Notebook: pull reported TGI for OVCAR-3 ovarian, entry Oc1ccc(Nc2ccc3ccccc3c2)cc1
Result :: 19

----------
- Test system: CCRF-CEM leukemia
- experiment: NCI tumour cell line growth inhibition, 48 h
measured property: TGI

Example molecules with recorded TGI:
molecule: N#Cc1ccc(Cc2ccccn2)cc1Cl
TGI: > 100 µM

molecule: CC(=O)/C(=C/c1ccccc1)C(=O)CC(C)C
TGI: > 100 µM

molecule: COCCN(CCNC(=O)c1cccc2c(N)c3cccc(C)c3nc12)CCOC
TGI: > 26.2 µM

molecule: COc1ccc(C#Cc2ccc(=O)oc2-c2cc(OC)c(OC)c(OC)c2)cc1O
TGI: > 100 µM

Below is a list of molecules. For each, state its recorded TGI.
1. Cc1ccc(Nc2nccc(N(C)c3ccc4c(C)n(C)nc4c3)n2)cc1S(N)(=O)=O
2. Cc1nc2c(c(N3CCCc4ccccc43)n1)CCC2
3. CC(CC(=O)N1C(=O)C(C)(C)[C@@H](O)[C@H]1CC(C)C(Cl)(Cl)Cl)C(Cl)(Cl)Cl (some centres undefined)

Result ::
1: > 100 µM; 2: > 100 µM; 3: > 100 µM

----------
Field: TGI. Provide a value for each of the compounds that follow.
- System: IGROV1 ovarian
- experiment: NCI tumour cell line growth inhibition, 48 h

compound: Nc1ccc2[nH]c(-c3cccc(C(F)(F)F)c3)cc(=O)c2c1
TGI: > 100 µM
//
compound: N#CC(C(=O)C(=O)Nc1ccccc1)c1ccccc1 (stereo not given)
TGI: > 100 µM
//
compound: CCCCCCCCCCCCOP(=O)(O)OP(=O)(O)OCC1OC(n2ccc(N)nc2=O)CC1O (stereo not given)
TGI: > 100 µM

# map each compound to its TGI
1. COc1ccc(/C(C)=N/NC(=O)c2ccncc2)c(OC)c1
2. O=S(=O)(CCN1CCOCC1)Nc1cc(-c2ccc3ncnc(Nc4ccc(F)c(Cl)c4)c3c2)cnc1Cl

Result ::
1. > 10 µM
2. 0.515 µM

----------
- Tested on: KM12 colon
- experiment: NCI tumour cell line growth inhibition, 48 h
Assignment: determine reported TGI for the given molecules.
Answers are plain numbers, in µM.

Reference set (4 entries):
molecule: COc1cc(OC)cc(-c2ccc(-c3ccc(C(=N)N)cn3)o2)c1
measurement units: µM
TGI: 3.34
//
molecule: O=C1CSC(=S)N1c1ccco1
measurement units: µM
TGI: 52.6
//
molecule: COc1ccc([N+](=O)[O-])c2c(NCCCN(C)C)ccnc12
measurement units: µM
TGI: 24.2
//
molecule: COc1cc(C2c3cc4c(cc3[C@@H](Nc3cccc(CO)c3)C3COC(=O)[C@H]23)OCO4)cc(OC)c1O (some centres undefined)
measurement units: µM
TGI: 6.67

Query :: Any idea what its TGI is? The molecule is COc1cc2c3cc1Oc1c(O)c(OC)cc4c1C(Cc1ccc(O)c(c1)Oc1ccc(cc1)CC3N(C)CC2)N(C)CC4 (centres undefined)
Result :: 23.6

----------
- System: MALME-3M melanoma
- experiment: NCI tumour cell line growth inhibition, 48 h
Give TGI for every item shown.

See these solved cases before continuing.
compound: O=S(=O)(CCN1CCOCC1)Nc1cc(-c2ccc3ncnc(Nc4ccc(F)c(Cl)c4)c3c2)cnc1Cl
observed: 0.93 µM
--
compound: CC(=O)Oc1cc(S(=O)(=O)Nc2n[nH]c(Nc3ccc(C)cc3)n2)c(S)cc1Cl
observed: > 100 µM
--
compound: COc1cccc(C23CCCC(C2)NCC3Br)c1OC (centres undefined)
observed: > 100 µM
--
compound: N#CC(N=Nc1ccccc1C(=O)O)C(N)=O (centres undefined)
observed: > 100 µM
--
compound: CC1(C)[C@@H]2C[C@H]1[C@@H](Cc1cccc(C[C@H]3c4cc(-c5ccccn5)ncc4[C@H]4C[C@@H]3C4(C)C)c1)c1cc(-c3ccccn3)ncc12
observed: 8.14 µM
--
compound: O=C/C1=C/C2=Cc3ccccc3C=C(/C=C(/C=O)C1)C2
observed: > 100 µM

Parameter requested: TGI. Apply to each item below.
1. NS(=O)(=O)c1nnc(NC(=O)C23CC4CC(CC(C4)C2)C3)s1
2. CSC(=NC#N)S/C=C/C(=O)c1ccccc1
3. CC(O)C1(CNc2cc(Cl)nc(N)n2)CCCCC1 (centres undefined)

Result ::
1: > 100 µM; 2: 74.7 µM; 3: > 100 µM
